# System: ARDS patients
# experimental.details: eICU (v1) dataset, statin intervention by Model C.4 subphenotype
# Type: in vivo, human
# settings: no consideration to number doses and minimum dose size; All Patients
result.type: Dead
Answer with a number only.

{"entry.smiles": "CC[C@H](C)C(=O)O[C@H]1C[C@@H](C)C=C2C=C[C@H](C)[C@H](CC[C@@H]3C[C@@H](O)CC(=O)O3)[C@H]21", "Dead": 1}
{"entry.smiles": "CC(C)c1c(C(=O)Nc2ccccc2)c(-c2ccccc2)c(-c2ccc(F)cc2)n1CC[C@@H](O)C[C@@H](O)CC(=O)O", "Dead": 54}
{"entry.smiles": "CCC(C)(C)C(=O)O[C@H]1C[C@@H](C)C=C2C=C[C@H](C)[C@H](CC[C@@H]3C[C@@H](O)CC(=O)O3)[C@H]21", "Dead": 26}
{"entry.smiles": "CC[C@H](C)C(=O)O[C@H]1C[C@H](O)C=C2C=C[C@H](C)[C@H](CC[C@@H](O)C[C@@H](O)CC(=O)O)[C@H]21", "Dead": 6}

Please give the measured Dead for this compound: CC(C)c1nc(N(C)S(C)(=O)=O)nc(-c2ccc(F)cc2)c1/C=C/[C@@H](O)C[C@@H](O)CC(=O)O
4
